ASSAY: Analytical reversed-phase HPLC elution (hydrophobicity)
Assay type: physicochemical
SETUP_CONDITIONS: Table S1; analytical RP-HPLC, SunFire C18, water/ACN + 0.1% TFA, 5 to 100% B linear over 30 min, 1 mL/min, UV 220 nm; approximate comparison of hydrophobicity
Square brackets hold non-standard residues; d marks the D form. Peptide text beside a SMILES is read from it. Gly(N(CH2)2(3-indolyl)) = O=C(O)CNCCc1c[nH]c2ccccc12; Nspe = C[C@H](NCC(=O)O)c1ccccc1; Nlys = NCCCCNCC(=O)O
RECORDED_ENDPOINT: HPLC elution (% MeCN)
Answers are plain numbers, in % MeCN.

Answered cases to consult:
C[C@@H](c1ccccc1)N(CC(N)=O)C(=O)CN(C(=O)CN(CCCCN)C(=O)CN(C(=O)CN(C(=O)CN(CCCCN)C(=O)CN(C(=O)CN(C(=O)CN(CCCCN)C(=O)CN(C(=O)CN(C(=O)CN(CCCCN)C(=O)CNCCc1c[nH]c2ccccc12)[C@@H](C)c1ccccc1)[C@@H](C)c1ccccc1)[C@@H](C)c1ccccc1)[C@@H](C)c1ccccc1)[C@@H](C)c1ccccc1)[C@@H](C)c1ccccc1)[C@@H](C)c1ccccc1: 55.8
C[C@H](NCC(=O)N(CCCCN)CC(=O)N(CC(=O)N(CC(=O)N(CCCCN)CC(=O)N(CC(=O)N(CC(=O)N(CCCCN)CC(=O)N(CCCCN)CC(=O)N(CC(=O)N(CCCCN)CC(=O)N(CC(N)=O)[C@@H](C)c1ccccc1)[C@@H](C)c1ccccc1)[C@@H](C)c1ccccc1)[C@@H](C)c1ccccc1)[C@@H](C)c1ccccc1)[C@@H](C)c1ccccc1)c1ccccc1 [peptoid 54] (H-[Nspe][Nlys][Nspe][Nspe][Nlys][Nspe][Nspe][Nlys][Nlys][Nspe][Nlys][Nspe]-NH2): 48.1
C[C@@H](c1ccccc1)N(CC(=O)N(CCCCN)CC(=O)N(CC(=O)N(CC(=O)N(CCCCN)CC(=O)N(CC(=O)N(CC(=O)N(CCCCN)CC(N)=O)[C@@H](C)c1ccccc1)[C@@H](C)c1ccccc1)[C@@H](C)c1ccccc1)[C@@H](C)c1ccccc1)C(=O)CN(C(=O)CN(CCCCN)C(=O)CN(CCc1c[nH]c2ccccc12)C(=O)CNCCc1c[nH]c2ccccc12)[C@@H](C)c1ccccc1 [peptoid 37] (H-[Gly(N(CH2)2(3-indolyl))][Gly(N(CH2)2(3-indolyl))][Nlys][Nspe][Nspe][Nlys][Nspe][Nspe][Nlys][Nspe][Nspe][Nlys]-NH2): 52.7

API: the following record is the query input.
INPUT: Please report the recorded HPLC elution for C[C@@H](c1ccccc1)N(CC(=O)N(CCCCN)CC(=O)N(CCCCN)CC(=O)N(CC(=O)N(CC(=O)N(CCCCN)CC(=O)N(CC(=O)N(CC(=O)N(CCCCN)CC(N)=O)[C@@H](C)c1ccccc1)[C@@H](C)c1ccccc1)[C@@H](C)c1ccccc1)[C@@H](C)c1ccccc1)C(=O)CN(CCCCN)C(=O)CN(CCc1c[nH]c2ccccc12)C(=O)CNCCc1c[nH]c2ccccc12 [peptoid 38] (H-[Gly(N(CH2)2(3-indolyl))][Gly(N(CH2)2(3-indolyl))][Nlys][Nspe][Nlys][Nlys][Nspe][Nspe][Nlys][Nspe][Nspe][Nlys]-NH2) .
OUTPUT: 47.8

* * *

ASSAY: Analytical reversed-phase HPLC elution (hydrophobicity)
Type: physicochemical
SETUP_CONDITIONS: Table S1; analytical RP-HPLC, SunFire C18, water/ACN + 0.1% TFA, 5 to 100% B linear over 30 min, 1 mL/min, UV 220 nm; approximate comparison of hydrophobicity
Square brackets hold non-standard residues; d marks the D form. Peptide text beside a SMILES is read from it. Gly(N(CH2)2(3-indolyl)) = O=C(O)CNCCc1c[nH]c2ccccc12; Nspe = C[C@H](NCC(=O)O)c1ccccc1; Nphe = O=C(O)CNCc1ccccc1; Nlys = NCCCCNCC(=O)O
RECORDED_ENDPOINT: HPLC elution (% MeCN)
Give bare numbers, in % MeCN.

C[C@@H](c1ccccc1)N(CC(N)=O)C(=O)CN(CCCCN)C(=O)CN(C(=O)CN(CCCCN)C(=O)CN(CCCCN)C(=O)CN(C(=O)CN(C(=O)CN(CCCCN)C(=O)CN(C(=O)CN(C(=O)CN(CCCCN)C(=O)CN(C(=O)CNCCc1c[nH]c2ccccc12)[C@@H](C)c1ccccc1)[C@@H](C)c1ccccc1)[C@@H](C)c1ccccc1)[C@@H](C)c1ccccc1)[C@@H](C)c1ccccc1)[C@@H](C)c1ccccc1: 50.8

API: the following record is the query input.
INPUT: Please report the recorded HPLC elution for C[C@@H](c1ccccc1)N(CC(=O)N(CCCCN)CC(=O)N(CCc1c[nH]c2ccccc12)CC(=O)N(CCc1c[nH]c2ccccc12)CC(N)=O)C(=O)CN(CCCCN)C(=O)CN(CCCCN)C(=O)CN(Cc1ccccc1)C(=O)CN(Cc1ccccc1)C(=O)CN(CCCCN)C(=O)CN(C(=O)CN(C(=O)CNCCCCN)[C@@H](C)c1ccccc1)[C@@H](C)c1ccccc1 [peptoid 40] (H-[Nlys][Nspe][Nspe][Nlys][Nphe][Nphe][Nlys][Nlys][Nspe][Nlys][Gly(N(CH2)2(3-indolyl))][Gly(N(CH2)2(3-indolyl))]-NH2) .
OUTPUT: 47.5

* * *

ASSAY: Analytical reversed-phase HPLC elution (hydrophobicity)
Format: physicochemical
SETUP_CONDITIONS: Table S1; analytical RP-HPLC, SunFire C18, water/ACN + 0.1% TFA, 5 to 100% B linear over 30 min, 1 mL/min, UV 220 nm; approximate comparison of hydrophobicity
Square brackets hold non-standard residues; d marks the D form. Peptide text beside a SMILES is read from it. Nspe = C[C@H](NCC(=O)O)c1ccccc1; Nlys = NCCCCNCC(=O)O
Everything with HPLC elution lower than 50 % MeCN is class 0; everything else, including exactly 50 % MeCN, is class 1.

C[C@@H](c1ccccc1)N(CC(N)=O)C(=O)CN(C(=O)CN(CCCCN)C(=O)CN(CCc1c[nH]c2ccccc12)C(=O)CN(C(=O)CN(CCCCN)C(=O)CN(C(=O)CN(C(=O)CN(CCCCN)C(=O)CN(C(=O)CN(C(=O)CNCCCCN)[C@@H](C)c1ccccc1)[C@@H](C)c1ccccc1)[C@@H](C)c1ccccc1)[C@@H](C)c1ccccc1)[C@@H](C)c1ccccc1)[C@@H](C)c1ccccc1 [peptoid 8]: class 1
C[C@@H](c1ccccc1)N(CC(N)=O)C(=O)CN(C(=O)CN(CCCCN)C(=O)CN(C(=O)CN(CCCCN)C(=O)CN(CCCCN)C(=O)CN(C(=O)CN(C(=O)CN(CCCCN)C(=O)CN(C(=O)CN(C(=O)CN(CCCCN)C(=O)CN(CCc1c[nH]c2ccccc12)C(=O)CNCCc1c[nH]c2ccccc12)[C@@H](C)c1ccccc1)[C@@H](C)c1ccccc1)[C@@H](C)c1ccccc1)[C@@H](C)c1ccccc1)[C@@H](C)c1ccccc1)[C@@H](C)c1ccccc1 [peptoid 35]: class 1
C[C@@H](c1ccccc1)N(CC(=O)N(CCCCN)CC(=O)N(CC(=O)N(CC(=O)N(CCCCN)CC(=O)N(CC(=O)N(CC(=O)N(CCCCN)CC(=O)N(CCCCN)CC(N)=O)[C@@H](C)c1ccccc1)[C@@H](C)c1ccccc1)[C@@H](C)c1ccccc1)[C@@H](C)c1ccccc1)C(=O)CN(C(=O)CNCCCCN)[C@@H](C)c1ccccc1 [peptoid 49] (H-[Nlys][Nspe][Nspe][Nlys][Nspe][Nspe][Nlys][Nspe][Nspe][Nlys][Nlys]-NH2): class 0
C[C@@H](c1ccccc1)N(CC(N)=O)C(=O)CN(C(=O)CN(CCCCN)C(=O)CN(C(=O)CN(C(=O)CN(CCCCN)C(=O)CN(C(=O)CN(C(=O)CN(CCCCN)C(=O)CN(Cc1ccccc1)C(=O)CN(Cc1ccccc1)C(=O)CNCCCCN)[C@@H](C)c1ccccc1)[C@@H](C)c1ccccc1)[C@@H](C)c1ccccc1)[C@@H](C)c1ccccc1)[C@@H](C)c1ccccc1 [peptoid 46]: class 1

Continue with the next molecule.
INPUT: Reported HPLC elution reaches at least 50 % MeCN for C[C@@H](c1ccccc1)N(CC(N)=O)C(=O)CN(C(=O)CN(CCCCN)C(=O)CN(C(=O)CN(CCc1c[nH]c2ccccc12)C(=O)CN(CCCCN)C(=O)CN(CCc1c[nH]c2ccccc12)C(=O)CN(C(=O)CN(CCCCN)C(=O)CN(C(=O)CN(C(=O)CNCCCCN)[C@@H](C)c1ccccc1)[C@@H](C)c1ccccc1)[C@@H](C)c1ccccc1)[C@@H](C)c1ccccc1)[C@@H](C)c1ccccc1 [peptoid 15] ?
OUTPUT: class 1

* * *

System: rat erythrocytes
ASSAY: Hemolysis assay
Assay type: cell-based
SETUP_CONDITIONS: red cells of rat
Square brackets hold non-standard residues; d marks the D form. Peptide text beside a SMILES is read from it. Gly(N(CH2)2(3-indolyl)) = O=C(O)CNCCc1c[nH]c2ccccc12; Nspe = C[C@H](NCC(=O)O)c1ccccc1; Nlys = NCCCCNCC(=O)O
RECORDED_ENDPOINT: HC50

INPUT: Please report the recorded HC50 for C[C@@H](c1ccccc1)N(CC(=O)N(CCCCN)CC(=O)N(CCc1c[nH]c2ccccc12)CC(=O)N(CCc1c[nH]c2ccccc12)CC(N)=O)C(=O)CN(CCCCN)C(=O)CN(CCCCN)C(=O)CN(C(=O)CN(C(=O)CN(CCCCN)C(=O)CN(C(=O)CN(C(=O)CNCCCCN)[C@@H](C)c1ccccc1)[C@@H](C)c1ccccc1)[C@@H](C)c1ccccc1)[C@@H](C)c1ccccc1 [29-AcOH] (H-[Nlys][Nspe][Nspe][Nlys][Nspe][Nspe][Nlys][Nlys][Nspe][Nlys][Gly(N(CH2)2(3-indolyl))][Gly(N(CH2)2(3-indolyl))]-NH2) .
OUTPUT: > 100 µM
